Biological target: T1, recombinant human CD3 epsilon/delta heterodimer (human, UniProt P07766 23-126; P04234 22-105)
T1 construct: Recombinant protein in solution (200-50 nM) in the Octet assay; also called hCD3 E/D; human CD3E/D
T1 sequence (P07766 23-126, stated change not applied, chain 1 of 2): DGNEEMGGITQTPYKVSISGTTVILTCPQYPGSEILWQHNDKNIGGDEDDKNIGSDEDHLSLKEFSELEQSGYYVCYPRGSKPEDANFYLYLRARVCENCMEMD
T1 sequence (P04234 22-105, stated change not applied, chain 2 of 2): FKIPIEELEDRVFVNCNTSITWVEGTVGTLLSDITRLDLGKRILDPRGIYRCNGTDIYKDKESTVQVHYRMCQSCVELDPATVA
Test: Octet BLI, mAb on FAB2G sensor, hCD3 E/D 200-50 nM; R^2 0.99
ASSAY READOUT: Kd (nM)
Numbers only; they are read as nM.

{"columns": ["BINDER", "Kd / nM"],
 "data": [
  ["ABL-CD3-54 (antibody, V domains shown, Chimeric hybridoma mAb: human V, CH1, upper hinge; mouse middle hinge, CH2, CH3) VH: EVQLVESGGGLVKPGGSLRLSCAASGFTFSSYSMNWVRQAPGKGLEWVSSISRSSRYIFYADSVRGRFTISRDNAKNSLYLQMNSLRAEDTAVYYCAREKRELLFDYWGQGTLVTVSS VL: NSMLTQPHSVSESPGKTVTISCTRSSGSIASYYVQWYQQRPGSSPTTVIYEDNQRPSGVPDRFSGSIDSSSNSASLTISGLKTEDEADYYCQSFDSSNRVFGGGTKLTVL", 17.6]
]}

Could you now consider this next binder?
ABL-CD3-49 (antibody, V domains shown, Chimeric hybridoma mAb: human V, CH1, upper hinge; mouse middle hinge, CH2, CH3) VH: EVQLVESGGGLVKPGGSLRLSCSASGFTFSTYTMNWVRQAPGKGLEWVSSISKSSSYIYYTDSVKGRFTISRDNAKNSLYLQMNSLRAEDTAVYYCARERRTLAFDIWGQGTMVTVSS VL: NFMLTQPHSVSESPGKTVTISCTRSSGSIASNYVQWYQQRPGSSPTTVIYEDNQRSSGVPDRFSGSIDSSSNSASLTISGLKTEDEADYYCQCYDRSNRVFGGGTKLTVL has a reported Kd of 6.52
